The origin of these recorded values is patent US20250122225A1.

tested on: Lectin Pathway Activation in human serum; test: Lectin Pathway Activation (LPA) assay in human serum, mannan-coated ELISA plate, C4c detection; format: biochemical; conditions: 1% human serum, read-out: LPA Functional Activity (IC50)
Structures can show the parent of a compound that is named as a salt.
Observed Property: IC50

Solved cases (5 shown):
COc1cc(C)cc(CNc2ncc3n(c2=O)[C@H](C(=O)NCc2cc4cnccc4[nH]2)CC3)c1 :: < 0.05 µM
O=C(NCc1cc2cnccc2[nH]1)[C@@H]1CCc2c(C3=CCOCC3)nc(NCc3ccccc3)c(=O)n21 :: < 0.05 µM
C[C@@H](CNc1ncc2n(c1=O)[C@H](C(=O)NCc1cc3c(s1)CNC3)CC2)c1ccccc1 [Compound 276, trifluoroacetate] :: < 0.05 µM
Cc1nc(N)ccc1CNC(=O)[C@@H]1CCc2c(Cl)nc(NCCc3cccnc3)c(=O)n21 :: 0.05 to 0.5 µM
Cc1ccc(CNc2nc(Cl)c3n(c2=O)[C@H](C(=O)NCc2ccc(N)nc2C)CC3)cc1C [Compound 27, trifluoroacetate] :: < 0.05 µM

Record for `Cc1cc(C)cc(CNc2ncc3n(c2=O)[C@H](C(=O)NCc2ccnc(N)c2)CC3)c1` under target or system Lectin Pathway Activation in human serum: IC50 reported as 0.05 to 0.5 µM

* * *

molecular target: human α-thrombin (Homo sapiens, UniProt P00734)
Each entry below carries its reported Ki.

Cc1ccc(F)cc1CNc1ncc2n(c1=O)[C@H](C(=O)NCc1ccc(N)nc1C)CC2 :: < 0.5 µM
Cc1nc(N)ccc1CNC(=O)[C@@H]1CCc2cnc(NCc3cccc(C(C)C)c3)c(=O)n21 :: < 0.5 µM

Switching to the query record.
# Ki of `CCc1cccc(CNc2nc(Cl)c3n(c2=O)[C@H](C(=O)NCc2ccc(N)nc2C)CC3)c1` = 0.5 to 2.5 µM

* * *

test system: Lectin Pathway Activation in human serum; assay: Lectin Pathway Activation (LPA) assay in human serum, mannan-coated ELISA plate, C4c detection; type: biochemical; conditions: 1% human serum, read-out: LPA Functional Activity (IC50)
pIC50: −log10 of the molar value. Counter-ions that a name gives are not always drawn.
Each entry below carries its reported pIC50.

# pIC50 of `Cc1nc(N)ccc1CNC(=O)[C@@H]1C[C@H](Cc2ccccc2)c2cnc(NC3CCC3)c(=O)n21` = > 7.30

# pIC50 of `Cc1cc(F)cc(CNc2ncc3n(c2=O)[C@H](C(=O)NCc2ccc(N)nc2C)CC3)c1` = > 7.30

# pIC50 of Cc1cc(F)cc(CNc2ncc3n(c2=O)[C@H](C(=O)NCc2cnc(N)c(C)c2)CC3)c1 [Compound 213, trifluoroacetate] = 6.30 to 7.30
